Test system: SW-620 colon
Assay: NCI-60 one-dose screen, 48 h (100 = growth as untreated, 0 = no growth, -100 = all killed)
Details: 10 µM unless noted
The panel holds about 83,000 compounds, 20% with a hit somewhere; the sample as a whole holds those more often. Calls of active or inactive are those of the source. Rule for the calls: active = growth percent below 10; inactive = the rest.
Some compounds, each annotated with its measured growth.

                         chemical_structure  tested_target    recorded_value
0  N#Cc1cnc2cc(OC[C@@H](O)CO)c(NC(=O)C3CCCC3)cc2c1Nc1ccc(OCc2cccc(F)c2)c(Cl)c1   SW-620 colon  15.8% (inactive)
1  C[C@@H]1CCCCCCCCC[C@H](O)C(=O)C[C@@H](SC[C@@H](O)C(=O)O)C(=O)O1   SW-620 colon   103% (inactive)
2  COc1ccc2c(c1)c1nc3cc(C)c(C)cc3nc1n2CCN(C)C   SW-620 colon   -66.1% (active)

Here's the next entry for you.
Value (growth, SW-620 colon) for record C=C(C)[C@@H]1CC[C@]2(C)[C@H](CC=C3[C@@H]4CC(C)(C)CC[C@]4(C=O)CC[C@]32C)[C@@]1(C)CCCN = 29.5% (inactive)

---

Test system: UO-31 renal
Test: NCI-60 one-dose screen, 48 h
Details: 10 µM unless noted
Description: Growth inhibition of the UO-31 human tumor cell line is measured as a screen for anti-cancer activity. Cells are grown in 96 well plates and exposed to the test compound for 48 hours. Compounds are tested at a single concentration, which is 10^-5 M for most compounds. The reported endpoint is percent growth (GI% or GIPRCNT), where numbers from 0 - 100% represent growth inhibition, and numbers from -100% - 0 represent cell death. For example, a value of 40 represents 60% growth inhibition. […]
This is part of a sample that, as a whole, favours compounds with a hit. Of some 83,000 tested, about 20% had one in any assay. Activity calls are given as the source filed them. How the source made its calls: active means growth percent below 10; inactive means the rest.
Please answer using one outcome listed in true = active, false = inactive

# outcome recorded in this test, key = NC(Cc1ccc(O)cc1)C(=O)N/N=C/c1ccccc1O (stereo not given)
false

Given COc1ccc(NC(=O)c2ccc3c(c2)nc(-c2cc4ccccc4[nH]c2=O)n3-c2cc(C(C)(C)C)[nH]n2)cc1 , state the outcome it received in this test.
false

# fetch the recorded call for CN1CCN(CC#CCn2c3c(c4ccccc42)C[C@]2(C)[C@H]4CC[C@@H]5[C@H]6[C@H]7OC(=O)[C@@]6(CCC7(C)C)CC[C@@]5(C)[C@]4(C)CC[C@H]2C3(C)C)CC1 here
false

Hey, what did the test say about COC(=O)[C@]12CC[C@@H](C)[C@H](C)[C@@H]1C1=CC[C@@H]3[C@@]4(C)C[C@@H](O)[C@H](O)[C@@](C)(CO)C4=CC[C@@]3(C)[C@]1(C)CC2 ?
true

# outcome recorded in this test, key = COc1ccc(-c2cc(=O)oc3ccc(Cl)cc23)cc1F
false

What is the recorded call for this molecule in the test? COc1cnc2c(c1)C(=O)c1c-2n(CCCNC(C)C)c(=O)c2cc([N+](=O)[O-])ccc12
true

Which result was noted for this molecule in the test: NCCn1cc(-c2nc(-c3c[nH]c4ncccc34)cs2)c2cc(Br)ccc21
false

What was the test verdict on CCCCC(=O)OC1CCCCC1C (stereo not given) ?
false

Record lookup: outcome of this test for Cc1nn(-c2ccc(Br)cc2)c2nc3[nH]c(=O)[nH]c(=O)c3nc12 ?
false
